From: the Kinase Knowledgebase extract (Sharma et al. 2016)

Molecular target: MAPK14 (human)
Experiment: In vitro Inhibition of VEGF Stimulated MAPK Activation
pIC50: −log10 of the molar value.
READOUT LABEL: pIC50

See these solved cases before continuing.
# query: pIC50 of entry COc1cc2nccc(Oc3cc(C)c(NC(=O)Nc4cccc(F)c4OC)cc3C)c2cc1OC
8.31

# query: pIC50 of entry COc1cc2nccc(Oc3ccc(NC(=O)Nc4cccc(F)c4OC)c(C)c3C)c2cc1OC
8.28

# query: pIC50 of entry CCCCNC(=O)Nc1ccc(Oc2ccnc3cc(OC)c(OC)cc23)cc1F
8.29

# query: pIC50 of entry CCCNC(=O)Nc1ccc(Oc2ccnc3cc(OC)c(OC)cc23)cc1[N+](=O)[O-]
8.40

# query: pIC50 of entry COc1cc2nccc(Oc3ccc(NC(=O)Nc4cccc5ccccc45)c(Cl)c3)c2cc1OC
8.27

1 = COc1cc2nccc(Oc3ccc(NC(=O)Nc4ccc(C)cn4)c(C)c3C)c2cc1OC
2 = CCCNC(=O)Nc1ccc(Oc2ncnc3cc(OC)c(OC)cc23)cc1[N+](=O)[O-]
Task for the reader: decide whether 1 or 2 has the larger pIC50. Could you answer with the label of the item you picked?
1
(1: 8.38, 2: 7.99)
